- TEST_SYSTEM: EGFR Del19/T790M/C797S (Homo sapiens, UniProt P00533, C797S/DEL746-750/T790M)
- Sequence (P00533 with tags, fused parts or gaps DEL746-750/T790M/C797S): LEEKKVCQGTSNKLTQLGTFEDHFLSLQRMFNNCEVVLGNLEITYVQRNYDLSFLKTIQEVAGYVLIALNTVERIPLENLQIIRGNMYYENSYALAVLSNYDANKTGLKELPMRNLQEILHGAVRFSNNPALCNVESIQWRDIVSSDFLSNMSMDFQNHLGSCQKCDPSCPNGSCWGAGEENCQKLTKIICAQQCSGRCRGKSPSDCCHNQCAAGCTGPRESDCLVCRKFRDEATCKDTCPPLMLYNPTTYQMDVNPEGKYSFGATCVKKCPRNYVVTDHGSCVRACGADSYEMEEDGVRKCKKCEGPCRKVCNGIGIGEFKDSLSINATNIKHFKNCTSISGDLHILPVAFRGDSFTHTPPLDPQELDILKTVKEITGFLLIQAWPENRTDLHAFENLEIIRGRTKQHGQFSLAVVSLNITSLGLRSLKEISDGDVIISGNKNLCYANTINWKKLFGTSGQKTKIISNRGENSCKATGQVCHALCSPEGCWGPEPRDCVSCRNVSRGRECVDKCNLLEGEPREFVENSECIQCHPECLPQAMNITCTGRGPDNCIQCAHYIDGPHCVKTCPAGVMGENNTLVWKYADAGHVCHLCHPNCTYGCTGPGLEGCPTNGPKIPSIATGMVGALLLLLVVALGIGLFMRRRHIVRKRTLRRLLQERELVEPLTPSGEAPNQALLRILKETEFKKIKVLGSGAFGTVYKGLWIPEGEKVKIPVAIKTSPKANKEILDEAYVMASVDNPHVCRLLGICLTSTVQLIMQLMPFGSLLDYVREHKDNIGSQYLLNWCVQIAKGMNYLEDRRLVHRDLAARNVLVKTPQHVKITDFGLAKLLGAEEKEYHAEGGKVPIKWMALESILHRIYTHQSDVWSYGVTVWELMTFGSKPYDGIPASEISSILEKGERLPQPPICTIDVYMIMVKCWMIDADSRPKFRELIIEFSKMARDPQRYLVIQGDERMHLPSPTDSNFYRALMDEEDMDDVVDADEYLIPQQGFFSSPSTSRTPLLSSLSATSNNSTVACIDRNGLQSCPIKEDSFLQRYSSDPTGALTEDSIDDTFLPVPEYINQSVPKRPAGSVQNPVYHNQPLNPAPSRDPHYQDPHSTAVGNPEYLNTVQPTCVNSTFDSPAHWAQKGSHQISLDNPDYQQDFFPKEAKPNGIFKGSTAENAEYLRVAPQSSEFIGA
- TEST_NAME: Biochemical EGFR kinase inhibition assay (Lance Ultra TR-FRET), triple mutant del19/T790M/C797S
- PROTOCOL_CONDITIONS: IC50 Del19/T790M/C797S (nM), 100 μM ATP
Give log10(IC50) for every item shown.
Give log10 of IC50, with IC50 taken in nM.

Field: example entries. Status: answers known.
{"columns": ["COMPOUND", "log10(IC50)"],
 "data": [
  ["O=S(=O)(C1CC1)n1cc(-c2nccc(Nc3cc(NC[C@H]4CC[C@@H](O)C4)c(C#Cc4cnn(C(F)F)c4)cn3)n2)cn1", 0.20],
  ["Cn1cc(C#Cc2cnc(Nc3ccnc(-c4cnn(S(=O)(=O)C5CC5)c4)n3)cc2N2CCC(F)CC2)cn1", 0.49],
  ["CC1(CO)CCN(c2cc(Nc3ccnc(-c4cnn(S(=O)(=O)C5CC5)c4)n3)ncc2C#Cc2cnn(C3CCOC3)c2)CC1 (centres unmarked)", 0.11]
]}

Give log10(IC50) for all compounds that follow.
1. CC(=O)N1CCC(n2cc(C#Cc3cnc(Nc4ccnc(-c5cnn(S(=O)(=O)C6CC6)c5)n4)cc3N3CCC(NCCN(C)C)CC3)cn2)CC1
2. CC1OCCC1C#Cc1cnc(Nc2ccnc(-c3cnn(S(=O)(=O)C4CC4)c3)n2)cc1NCC1CCC(O)CC1 (centres unmarked)
3. CN(C)CC1(F)CCN(c2cc(Nc3ccnc(-c4cnn(S(=O)(=O)C5CC5)c4)n3)ncc2C#Cc2cnn(C3CC3)c2)CC1
4. CN1CCN(Cc2ccc(C#Cc3cnc(Nc4ccnc(-c5cnn(S(=O)(=O)C6CC6)c5)n4)cc3N3CCC(C)(CO)CC3)cc2)CC1

[-0.40, 0.43, -0.05, -0.22]

Report log10(IC50) for every entry below.
1. CC1OCCC1C#Cc1cnc(Nc2ccnc(-c3cnn(S(=O)(=O)C4CC4)c3)n2)cc1NC1CCC(O)CC1 (centres unmarked)
2. CNC1CCN(c2cc(Nc3ccnc(-c4cnn(S(=O)(=O)C5CC5)c4)n3)ncc2C#Cc2cnn(C)c2)CC1
3. Cn1cc(C#Cc2cnc(Nc3ccnc(-c4cnn(S(=O)(=O)C5CC5)c4)n3)cc2N2CCC(C(C)(C)CO)CC2)cn1
4. CN1CCN(Cc2ccc(C#Cc3cnc(Nc4ccnc(-c5cnn(S(=O)(=O)C6CC6)c5)n4)cc3N3CCC(C)(O)CC3)cc2)CC1
5. CN(C)C[C@@H]1CCCN(c2cc(Nc3ccnc(-c4cnn(S(=O)(=O)C5CC5)c4)n3)ncc2C#Cc2cnn(C)c2)C1
6. CC1(CO)CCN(c2cc(Nc3ccnc(-c4cnn(S(=O)(=O)C5CC5)c4)n3)ncc2C#CC2CCN(S(C)(=O)=O)CC2)CC1
7. O=S(=O)(C1CC1)N1CCC(C#Cc2cnc(Nc3ccnc(-c4cnn(S(=O)(=O)C5CC5)c4)n3)cc2NC2CCC(O)CC2)C1 (centres unmarked)

[-0.30, 0.15, 0.59, -0.40, 0.11, -0.30, -0.22]

###

- TEST_SYSTEM: EGFR Del19/C797S (Homo sapiens, UniProt P00533, C797S/DEL746-750)
- Sequence (P00533 with tags, fused parts or gaps DEL746-750/C797S): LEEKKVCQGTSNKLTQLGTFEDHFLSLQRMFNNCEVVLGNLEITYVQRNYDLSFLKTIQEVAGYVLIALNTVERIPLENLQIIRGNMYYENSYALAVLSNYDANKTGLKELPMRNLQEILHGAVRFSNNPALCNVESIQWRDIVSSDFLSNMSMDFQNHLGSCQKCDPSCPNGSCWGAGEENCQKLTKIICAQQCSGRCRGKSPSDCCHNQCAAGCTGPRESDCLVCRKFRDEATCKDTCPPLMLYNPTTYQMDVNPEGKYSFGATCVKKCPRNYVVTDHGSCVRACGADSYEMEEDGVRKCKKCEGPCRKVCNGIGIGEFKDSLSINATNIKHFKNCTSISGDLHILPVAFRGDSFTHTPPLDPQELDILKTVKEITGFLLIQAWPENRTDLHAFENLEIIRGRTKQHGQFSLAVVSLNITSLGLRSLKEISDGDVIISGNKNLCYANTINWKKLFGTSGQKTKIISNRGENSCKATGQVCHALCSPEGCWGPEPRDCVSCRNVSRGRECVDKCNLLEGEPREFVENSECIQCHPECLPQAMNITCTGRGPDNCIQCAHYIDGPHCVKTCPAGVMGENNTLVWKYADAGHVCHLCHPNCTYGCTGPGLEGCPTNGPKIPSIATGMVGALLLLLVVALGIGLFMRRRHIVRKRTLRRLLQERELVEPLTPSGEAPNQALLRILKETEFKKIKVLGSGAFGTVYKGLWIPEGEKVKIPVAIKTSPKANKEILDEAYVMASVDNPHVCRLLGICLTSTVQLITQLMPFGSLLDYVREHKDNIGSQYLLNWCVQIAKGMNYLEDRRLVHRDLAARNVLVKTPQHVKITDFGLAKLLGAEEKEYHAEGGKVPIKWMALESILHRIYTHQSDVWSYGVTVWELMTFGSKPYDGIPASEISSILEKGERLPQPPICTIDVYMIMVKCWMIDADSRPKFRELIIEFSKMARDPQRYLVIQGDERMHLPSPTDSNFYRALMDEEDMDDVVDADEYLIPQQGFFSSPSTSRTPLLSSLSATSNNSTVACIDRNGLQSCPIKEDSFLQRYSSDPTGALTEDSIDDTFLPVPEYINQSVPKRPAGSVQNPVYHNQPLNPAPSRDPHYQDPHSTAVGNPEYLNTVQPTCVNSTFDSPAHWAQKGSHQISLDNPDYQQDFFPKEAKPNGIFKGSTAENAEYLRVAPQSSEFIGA
- TEST_NAME: Biochemical EGFR kinase inhibition assay (Lance Ultra TR-FRET), double mutant del19/C797S
- PROTOCOL_CONDITIONS: IC50 Del19/C797S (nM), 100 μM ATP
Where a name gives a salt, the structure may show the parent alone.
REPORTED_METRIC: IC50
Mention the unit after the number when you answer.

Examples with their reported IC50 follow.
{"columns": ["MOLECULE", "MEASURED"],
 "data": [
  ["O=S(=O)(C1CC1)n1cc(-c2nccc(Nc3cc(N4C[C@@H]5[C@@H](CO)[C@@H]5C4)c(C#Cc4cnn(C(F)(F)F)c4)cn3)n2)cn1", "245 nM"],
  ["COCCNC1CCN(c2cc(Nc3ccnc(-c4cnn(S(=O)(=O)C5CC5)c4)n3)ncc2C#Cc2cnn(C)c2)CC1", "131 nM"]
]}

--- query ---
Give EGFR Del19/C797S (Homo sapiens, UniProt P00533, C797S/DEL746-750) IC50 for CN(C)CCC1CCN(c2cc(Nc3ccnc(-c4cnn(S(=O)(=O)C5CC5)c4)n3)ncc2C#Cc2cnn(C)c2)CC1 [Example 294, formate] 0.2 nM
